Tested on: Rabbit Reticulocyte Lysate
Experiment: Translation efficiency of capped firefly luciferase mRNA in Rabbit Reticulocyte Lysate System
Format: biochemical
Details: relative, m^7GpppG = 1
assay-endpoint: Translation efficiency
Give your answer as a number; write no unit.

Consider the worked cases shown below.
compound	test-target	Translation efficiency
C[n+]1cn([C@@H]2O[C@H](COP(=O)(O)OP(=O)([O-])c3cn(CCNP(=O)(O)OC[C@H]4O[C@@H](n5cnc6c(=O)[nH]c(N)nc65)C(O)C4O)nn3)C(O)C2O)c2nc(N)[nH]c(=O)c21 (some centres unmarked)	Rabbit Reticulocyte Lysate	0.50
Nc1nc2c(ncn2[C@@H]2O[C@H](COP(=O)(O)OP(=O)(O)OP(=O)(O)OC[C@H]3O[C@@H](n4cnc5c(=O)[nH]c(N)nc54)[C@H](O)[C@@H]3O)[C@@H](O)[C@H]2O)c(=O)[nH]1 [GpppG, reference compound]	Rabbit Reticulocyte Lysate	0.058
C[n+]1cn([C@@H]2O[C@H](COP(=O)(O)OP(=O)(O)OP(=O)([O-])c3cn(CCNP(=O)(O)OC[C@H]4O[C@@H](n5cnc6c(=O)[nH]c(N)nc65)C(O)C4O)nn3)C(O)C2O)c2nc(N)[nH]c(=O)c21 (some centres unmarked)	Rabbit Reticulocyte Lysate	0.89
COC1C(O)[C@@H](COP(=O)(O)OP(=O)(O)OP(=O)([O-])c2cn(CCNP(=O)(O)OP(=O)(O)OC[C@H]3O[C@@H](n4cnc5c(=O)[nH]c(N)nc54)C(O)C3O)nn2)O[C@H]1n1c[n+](C)c2c(=O)[nH]c(N)nc21 (some centres unmarked)	Rabbit Reticulocyte Lysate	2.226
COC1C(O)[C@@H](COP(=O)(O)OP(=O)(O)OP(=O)([O-])c2cn(CCOP(=O)(O)OP(=O)(O)OC[C@H]3O[C@@H](n4cnc5c(=O)[nH]c(N)nc54)C(O)C3O)nn2)O[C@H]1n1c[n+](C)c2c(=O)[nH]c(N)nc21 (some centres unmarked)	Rabbit Reticulocyte Lysate	1.749

Write down the reported Translation efficiency of C[n+]1cn([C@@H]2O[C@H](COP(=O)([O-])OP(=O)(O)NCCn3cc(CCP(=O)(O)OP(=O)(O)OC[C@H]4O[C@@H](n5cnc6c(=O)[nH]c(N)nc65)[C@@H](O)C4O)nn3)C(O)[C@@H]2O)c2nc(N)[nH]c(=O)c21 (some centres unmarked) , test system: Rabbit Reticulocyte Lysate.
0.239

Form: Entry = C[n+]1cn([C@@H]2O[C@H](COP(=O)(O)NCCn3cc(P(=O)([O-])OP(=O)(O)OC[C@H]4O[C@@H](n5cnc6c(=O)[nH]c(N)nc65)C(O)C4O)nn3)C(O)C2O)c2nc(N)[nH]c(=O)c21 (some centres unmarked) | System = Rabbit Reticulocyte Lysate | Translation efficiency = ____
0.075

---

Known hydrolysis in D2O of a selection of compounds
Assay: Hydrolysis in D2O seen in NMR spectra
Assay type: physicochemical
Settings: dissolved in D2O just before NMR measurement; given if higher than 5%
Where a name gives a salt, the structure may show the parent alone.
Kindly answer with a numeric value in %, unit omitted.

Please review the following examples before continuing.
compound	assay-endpoint	result-unit	readout-number
C[n+]1cn([C@@H]2O[C@H](COP(=O)(O)OP(=O)([O-])OP(=O)(O)Cc3cn(CCNP(=O)(O)OC[C@H]4O[C@@H](n5cnc6c(=O)[nH]c(N)nc65)C(O)C4O)nn3)C(O)C2O)c2nc(N)[nH]c(=O)c21 (stereo partly drawn)	hydrolysis in D2O	%	9
C[n+]1cn([C@@H]2O[C@H](COP(=O)(O)NCCn3cc(CP(=O)(O)OP(=O)([O-])OP(=O)(O)OC[C@H]4O[C@@H](n5cnc6c(=O)[nH]c(N)nc65)C(O)C4O)nn3)C(O)C2O)c2nc(N)[nH]c(=O)c21 (stereo partly drawn)	hydrolysis in D2O	%	7

What value of hydrolysis in D2O has been reported for the following compound? C[n+]1cn([C@@H]2O[C@H](COP(=O)([O-])OP(=O)(O)NCCn3cc(CCP(=O)(O)OP(=O)(O)OC[C@H]4O[C@@H](n5cnc6c(=O)[nH]c(N)nc65)[C@@H](O)C4O)nn3)C(O)[C@@H]2O)c2nc(N)[nH]c(=O)c21 (stereo partly drawn)
11

Report hydrolysis in D2O for C[n+]1cn([C@@H]2O[C@H](COP(=O)(O)NCCn3cc(P(=O)([O-])OP(=O)(O)OC[C@H]4O[C@@H](n5cnc6c(=O)[nH]c(N)nc65)C(O)C4O)nn3)C(O)C2O)c2nc(N)[nH]c(=O)c21 (stereo partly drawn) please.
14

Would you mind telling me what hydrolysis in D2O value was observed for C[n+]1cn([C@@H]2O[C@H](COP(=O)(O)OP(=O)(O)CCc3cn(CCNP(=O)(O)OP(=O)([O-])OC[C@H]4O[C@@H](n5cnc6c(=O)[nH]c(N)nc65)[C@@H](O)C4O)nn3)[C@H](O)C2O)c2nc(N)[nH]c(=O)c21 (stereo partly drawn) ?
10

Consider the compound shown here: C[n+]1cn([C@@H]2O[C@H](COP(=O)(O)NCCn3cc(CP(=O)(O)OP(=O)([O-])OC[C@H]4O[C@@H](n5cnc6c(=O)[nH]c(N)nc65)C(O)C4O)nn3)C(O)C2O)c2nc(N)[nH]c(=O)c21 (stereo partly drawn) What is its recorded hydrolysis in D2O?
11

Value lookup for hydrolysis in D2O; key = [N-]=[N+]=NCCNP(=O)(O)OP(=O)(O)OC[C@H]1O[C@@H](n2cnc3c(=O)[nH]c(N)nc32)[C@H](O)[C@@H]1O [GppNHC2H4N3, diphosphate ammonium salt]
15

So what's the measured hydrolysis in D2O for this one? C[n+]1cn([C@@H]2O[C@H](COP(=O)(O)NCCn3cc(P(=O)([O-])OP(=O)(O)OP(=O)(O)OC[C@H]4O[C@@H](n5cnc6c(=O)[nH]c(N)nc65)C(O)C4O)nn3)C(O)C2O)c2nc(N)[nH]c(=O)c21 (stereo partly drawn)
9

Which hydrolysis in D2O value is on record for C[n+]1cn([C@@H]2O[C@H](COP(=O)(O)OP(=O)(O)OP(=O)([O-])c3cn(CCNP(=O)(O)OC[C@H]4O[C@@H](n5cnc6c(=O)[nH]c(N)nc65)C(O)C4O)nn3)C(O)C2O)c2nc(N)[nH]c(=O)c21 (stereo partly drawn) ?
13

---

Tested on: Rabbit Reticulocyte Lysate
Experiment: Translation efficiency of capped firefly luciferase mRNA in Rabbit Reticulocyte Lysate System
Format: biochemical
Conditions: relative, m^7GpppG = 1
assay-endpoint: Translation efficiency
Form rule: numeric answer, no unit written next to it.

compound	test-target	Translation efficiency
C[n+]1cn([C@@H]2O[C@H](COP(=O)(O)OP(=O)(O)CCc3cn(CCNP(=O)(O)OP(=O)([O-])OC[C@H]4O[C@@H](n5cnc6c(=O)[nH]c(N)nc65)[C@@H](O)C4O)nn3)[C@H](O)C2O)c2nc(N)[nH]c(=O)c21 (stereo partly drawn)	Rabbit Reticulocyte Lysate	0.085
C[n+]1cn([C@@H]2O[C@H](COP(=O)(O)OP(=O)([O-])OP(=O)(O)Cc3cn(CCNP(=O)(O)OC[C@H]4O[C@@H](n5cnc6c(=O)[nH]c(N)nc65)C(O)C4O)nn3)C(O)C2O)c2nc(N)[nH]c(=O)c21 (stereo partly drawn)	Rabbit Reticulocyte Lysate	0.94

Would you kindly look at the next entry?
Name the recorded Translation efficiency for Cn1c[n+]([C@@H]2O[C@H](COP(=O)(O)OP(=O)([O-])OP(=O)(O)OC[C@H]3O[C@@H](n4cnc5c(=O)[nH]c(N)nc54)[C@H](O)[C@@H]3O)[C@@H](O)[C@H]2O)c2nc(N)[nH]c(=O)c21 [m^7GpppG, reference compound] .
1

---

Tested on: Rabbit Reticulocyte Lysate
Experiment: Translation efficiency of capped firefly luciferase mRNA in Rabbit Reticulocyte Lysate System
Type: biochemical
Details: relative, m^7GpppG = 1
assay-endpoint: Translation efficiency
Lab note: record the figure alone, no unit after it.

In the examples that follow, each entry is paired with its recorded Translation efficiency.
compound	Translation efficiency
C[n+]1cn([C@@H]2O[C@H](COP(=O)([O-])OP(=O)(O)Cc3cn(CCNP(=O)(O)OC[C@H]4O[C@@H](n5cnc6c(=O)[nH]c(N)nc65)C(O)C4O)nn3)C(O)C2O)c2nc(N)[nH]c(=O)c21 (stereo partly shown)	0.155
CO[C@H]1[C@@H](O)[C@H]([n+]2cn(C)c3c(=O)[nH]c(N)nc32)O[C@@H]1COP(=O)([O-])OP(=O)(O)OP(=O)(O)OC[C@H]1O[C@@H](n2cnc3c(=O)[nH]c(N)nc32)[C@H](O)[C@@H]1O [m2^7,3′-OGpppG, reference compound]	1.526
C[n+]1cn([C@@H]2O[C@H](COP(=O)(O)NCCn3cc(CP(=O)(O)OP(=O)([O-])OC[C@H]4O[C@@H](n5cnc6c(=O)[nH]c(N)nc65)C(O)C4O)nn3)C(O)C2O)c2nc(N)[nH]c(=O)c21 (stereo partly shown)	0.085
COC1C(O)[C@@H](COP(=O)(O)OP(=O)(O)OP(=O)([O-])c2cn(CCOP(=O)(O)OC[C@H]3O[C@@H](n4cnc5c(=O)[nH]c(N)nc54)C(O)C3O)nn2)O[C@H]1n1c[n+](C)c2c(=O)[nH]c(N)nc21 (stereo partly shown)	2.773

// returns reported Translation efficiency for input C[n+]1cn([C@@H]2O[C@H](COP(=O)(O)NCCn3cc(P(=O)([O-])OP(=O)(O)OP(=O)(O)OC[C@H]4O[C@@H](n5cnc6c(=O)[nH]c(N)nc65)C(O)C4O)nn3)C(O)C2O)c2nc(N)[nH]c(=O)c21 (stereo partly shown)
0.103

Tell me the measured Translation efficiency of C[n+]1cn([C@@H]2O[C@H](COP(=O)(O)NCCn3cc(CP(=O)(O)OP(=O)([O-])OP(=O)(O)OC[C@H]4O[C@@H](n5cnc6c(=O)[nH]c(N)nc65)C(O)C4O)nn3)C(O)C2O)c2nc(N)[nH]c(=O)c21 (stereo partly shown) , please.
0.060

Request the reported Translation efficiency associated with COC1C(O)[C@@H](COP(=O)(O)OP(=O)([O-])c2cn(CCOP(=O)(O)OP(=O)(O)OC[C@H]3O[C@@H](n4cnc5c(=O)[nH]c(N)nc54)C(O)C3O)nn2)O[C@H]1n1c[n+](C)c2c(=O)[nH]c(N)nc21 (stereo partly shown)
1.675
